Test system: Mortierella elongata AG77
Assay: Carbon source utilisation in Biolog 96-well plates, formazan formation after tetrazolium addition
Type: cell-based
Residues, ends and D or L forms follow the SMILES beside them.
assay_readout: Toxic

Example results:
O=C[C@@H](O)[C@H](O)[C@H](O)CO [D-Arabinose] | no
O=C[C@H](O)[C@@H](O)[C@@H](O)[C@H](O)C(=O)O [D-Galacturonic Acid] | no
NCC(=O)N1CCC[C@H]1C(=O)O [Glycyl-L-Proline] (H-Gly-Pro-OH) | no
CC(O)(CC(=O)O)C(=O)O (stereo not drawn) [Citramalic Acid] | no
OC[C@H]1O[C@@H](O[C@@H]2[C@@H](CO)OC(O)(CO)[C@H]2O)[C@H](O)[C@@H](O)[C@H]1O (mixture of isomers) [Lactulose] | no
N[C@@H](CC(=O)O)C(=O)O [L-Aspartic Acid] | no
N[C@H]1C(O)O[C@H](CO)[C@@H](O)[C@@H]1O (stereo partly drawn) [D-Glucosamine] | no
OC[C@@H](O)[C@H](O)[C@H](O)[C@@H](O)CO [Dulcitol] | no

# input molecule: C/C=C/C=C/C(=O)O [Sorbic Acid] ; wanted: its Toxic
no
